- System: human hepatocytes
- protocol_details: Conversion of compounds in human hepatocytes
- Assay type: in vitro ADME
- study_conditions: 1 μM compound, 37° C.; nd: not detected
parameter: Observed metabolite, Incubation in human hepatocytes

>>> test_result("CCCN1CCC[C@@H]2Cc3c(ccc(OC)c3O)C[C@H]21")
"Compound (I)"
>>> test_result("CCCN1CCC[C@@H]2Cc3c(ccc(O[C@@H]4O[C@H](C(=O)O)[C@@H](O)[C@H](O)[C@H]4O)c3O[C@@H]3O[C@H](C(=O)O)[C@@H](O)[C@H](O)[C@H]3O)C[C@H]21")
"Compound (I)"
>>> test_result("CCCN1CCC[C@@H]2Cc3c(ccc(OC)c3O[C@@H]3O[C@H](C(=O)OC)[C@@H](OC(=O)C(C)(C)C)[C@H](OC(=O)C(C)(C)C)[C@H]3OC(=O)C(C)(C)C)C[C@H]21")
"Compound (21)"
>>> test_result("CCCN1CCC[C@@H]2Cc3c(ccc(OC)c3O[C@@H]3O[C@H](C(=O)OCc4ccccc4)[C@@H](OC(=O)C(C)(C)C)[C@H](OC(=O)C(C)(C)C)[C@H]3OC(=O)C(C)(C)C)C[C@H]21")
"Compound (21)"
>>> test_result("CCCN1CCC[C@@H]2Cc3c(ccc(O[C@@H]4O[C@H](C(=O)O)[C@@H](O)[C@H](O)[C@H]4O)c3O)C[C@H]21")
"Compound (I)"

---

molecules and their reported activity at 10 µM
- assayed_target: UniProt P41595
- protocol_details: 5-HT2B agonist activity assay (IP1 production, HTRF)
- Type: cell-based
- study_conditions: read-out: 5-HT2B agonist activity, percent of control response
parameter: activity at 10 µM

>>> test_result("CCCN1CCC[C@@H]2Cc3c(ccc(O)c3O[C@@H]3OC(C(=O)O)=C[C@H](O)[C@H]3O)C[C@H]21")
"9%"
>>> test_result("CCCN1CCC[C@@H]2Cc3c(ccc(OC(=O)C(C)(C)C)c3OC(=O)C(C)(C)C)C[C@H]21 [(Ic), reference compound]")
"-5%"
>>> test_result("CCCN1CCC[C@@H]2Cc3c(ccc(OC)c3O[C@@H]3O[C@H](C(=O)O)[C@@H](O)[C@H](O)[C@H]3O)C[C@H]21")
"0%"

---

- assayed_target: human 5-HT2B receptor (Homo sapiens (Human), UniProt P41595)
- Sequence (P41595 whole entry): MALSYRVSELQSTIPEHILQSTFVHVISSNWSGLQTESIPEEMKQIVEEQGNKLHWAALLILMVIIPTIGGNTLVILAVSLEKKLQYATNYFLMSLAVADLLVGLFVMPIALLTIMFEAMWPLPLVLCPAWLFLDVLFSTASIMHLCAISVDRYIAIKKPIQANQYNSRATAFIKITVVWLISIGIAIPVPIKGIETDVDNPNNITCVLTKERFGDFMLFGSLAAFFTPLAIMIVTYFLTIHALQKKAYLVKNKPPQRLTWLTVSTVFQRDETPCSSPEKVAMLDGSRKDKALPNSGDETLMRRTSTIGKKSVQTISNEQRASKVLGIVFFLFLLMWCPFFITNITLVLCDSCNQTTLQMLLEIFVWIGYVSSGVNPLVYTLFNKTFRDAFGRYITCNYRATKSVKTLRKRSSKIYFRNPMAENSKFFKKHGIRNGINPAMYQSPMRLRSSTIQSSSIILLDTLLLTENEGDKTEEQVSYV
- protocol_details: 5-HT2B agonist activity assay (IP1 production, HTRF)
- Type: cell-based
- study_conditions: read-out: 5-HT2B agonist activity, percent of control response
parameter: activity at 10 µM (%)

>>> test_result("CCCN1CCC[C@@H]2Cc3c(ccc(OC)c3O)C[C@H]21")
27
>>> test_result("CCCN1CCC[C@@H]2Cc3c(ccc(O)c3O[C@@H]3O[C@H](C(=O)OC)[C@@H](OC(C)=O)[C@H](OC(C)=O)[C@H]3OC(C)=O)C[C@H]21")
10
>>> test_result("CCCN1CCC[C@@H]2Cc3c(ccc(OCc4ccccc4)c3O)C[C@H]21.I [Compound A2, hydroiodide]")
30
>>> test_result("CCCN1CCC[C@@H]2Cc3c(ccc(O[C@@H]4O[C@H](C(=O)OC)[C@@H](OC(C)=O)[C@H](OC(C)=O)[C@H]4OC(C)=O)c3O)C[C@H]21")
2

---

- protocol_details: Conversion of compounds in human plasma
- Format: in vitro ADME
- study_conditions: 1 μM test compound, 37° C., 0-6 hr; nd: not detected
parameter: Observed metabolite, Incubation in human plasma

>>> test_result("CCCN1CCC[C@@H]2Cc3c(ccc(O)c3O[C@@H]3O[C@H](C(=O)OC)[C@@H](OC(=O)C(C)(C)C)[C@H](OC(=O)C(C)(C)C)[C@H]3OC(=O)C(C)(C)C)C[C@H]21")
"Compound (6)"
>>> test_result("CCCN1CCC[C@@H]2Cc3c(ccc(OC)c3O[C@@H]3O[C@H](C(=O)OCc4ccccc4)[C@@H](OC(=O)C(C)(C)C)[C@H](OC(=O)C(C)(C)C)[C@H]3OC(=O)C(C)(C)C)C[C@H]21")
"Compound (21)"
>>> test_result("CCCN1CCC[C@@H]2Cc3c(ccc(O[C@@H]4O[C@H](C(=O)O)[C@@H](O)[C@H](O)[C@H]4O)c3O)C[C@H]21")
"Compound (I)"
>>> test_result("CCCN1CCC[C@@H]2Cc3c(ccc(O)c3O[C@@H]3O[C@H](C(=O)OCC)[C@@H](OC(=O)C(C)(C)C)[C@H](OC(=O)C(C)(C)C)[C@H]3OC(=O)C(C)(C)C)C[C@H]21")
"Compound (6)"
>>> test_result("CCCN1CCC[C@@H]2Cc3c(ccc(OC)c3O[C@@H]3O[C@H](C(=O)OC)[C@@H](OC(=O)C(C)(C)C)[C@H](OC(=O)C(C)(C)C)[C@H]3OC(=O)C(C)(C)C)C[C@H]21")
"Compound (21)"
>>> test_result("CCCN1CCC[C@@H]2Cc3c(ccc(O[C@@H]4O[C@H](C(=O)O)[C@@H](O)[C@H](O)[C@H]4O)c3O[C@@H]3O[C@H](C(=O)O)[C@@H](O)[C@H](O)[C@H]3O)C[C@H]21")
"Compound (I)"

---

- assayed_target: UniProt P41595
- protocol_details: 5-HT2B agonist activity assay (IP1 production, HTRF)
- study_conditions: IP1 production, transfected CHO cells
parameter: EC50

>>> test_result("CCCN1CCC[C@@H]2CC3=C(CCCC3=O)C[C@H]21 [(Ia), reference compound]")
"> 6 µM"

meta.source: patent US12384765B2
